test system: MLK3; construct: gene MAP3K11; conditions: Compound Concentration (nM):1000;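 further: KINOMEscan scanMAX binding as percent activity remaining versus control; lower means stronger binding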
Measured Percent Control values are reported for all entries that follow.
Hi! Could you send only the number? It should be in %, unit omitted.

Consider the worked cases shown below.
| Compound | Experimental result |
| --- | --- |
| CN(C)c1cc2c(Nc3ccc4c(cnn4Cc4ccccc4)c3)ncnc2cn1 [GW282974X] | 100 |
| Nc1ncnc2occ(-c3ccc(NC(=O)Nc4cc(C(F)(F)F)ccc4F)cc3)c12 [GW770249X] | 54 |
| CCc1ccc(Oc2nccc(-c3c(-c4ccc(F)cc4)ncn3C3CCNCC3)n2)cc1 | 71 |
| COc1cc2ncnc(Nc3ccc4c(cnn4Cc4ccccc4)c3)c2cc1OC.Cl [GW282449A] | 100 |

Here's the next entry for you.
What value of Percent Control has been reported for the following compound? COc1ccc(COc2ccc(Cc3cnc(N)nc3N)cc2OC)cc1 [GW632580X]
90
